# TARGET_ENTITY: T1, ANTIBODY EXPRESSION CONTROL
# T1 construct: also called mouse anti-canine antibody (capture reagent of the expression control ELISA)
# ASSAY_SUMMARY: SPR Biacore, expression control
QUANTITY: koff

[
  {
    "BINDER": "Mu_02D09_VH (SEQ ID NO: 31)_D31A (antibody, V domains shown) VH: EVQLVESGGGLVKPGGSLTLSCAASGFTFSAYGMHWLRQAPEKGLEWVAYISSGSRAVFFADTVKGRFTISRDNAKNTLFLQMTSLRSDDTAMYYCARDRYDGRGFAYWGQGTLVTVSA VL: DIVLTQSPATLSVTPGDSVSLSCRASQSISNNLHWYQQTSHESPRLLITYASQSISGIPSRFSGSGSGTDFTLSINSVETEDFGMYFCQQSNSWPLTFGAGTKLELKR",
    "QUANTITY": "koff",
    "EXPERIMENTAL_RESULT": "8.32e-05 s⁻¹"
  }
]

Please fill in: koff reported for Mu_09E09_VH (SEQ ID NO: 35)_Y57A (antibody, V domains shown) VH: DVKLVESGEGLVKPGGSLKLSCAASGFTFSSYAMSWVRQTPEKRLEWVAYISSGGDAIYYADTVKGRFTISRDNARNTLYLQMSSLKSEDTAMYYCTRDPITGTFAYWGQGTLVTVSA VL: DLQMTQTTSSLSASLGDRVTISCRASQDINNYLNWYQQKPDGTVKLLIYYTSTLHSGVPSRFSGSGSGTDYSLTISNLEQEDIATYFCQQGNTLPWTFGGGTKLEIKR = 6.34e-05 s⁻¹

Data provenance: patent US20220177594A1
